- TESTED_ON: T1, cynomolgus monkey BCMA (cynomolgus monkey, UniProt A0A2K5UD97 1-53)
- T1 construct: Soluble analyte in SPR; construct not described; also called cyBCMA; Cyno BCMA
- PROCEDURE_SUMMARY: SPR, IgG on chip, cyBCMA analyte
MEASUREMENT_LABEL: kon (M⁻¹ s⁻¹)
Number only, in M⁻¹ s⁻¹; omit the unit.

Illustrative cases are given below, each with its answer.
COMBO_Rd4_6nM_C12 (antibody, V domains shown, IgG) VH: EVQLLESGGGLVQPGGSLRLSCAASGFTFSSYPMSWVRQAPGKGLEWVSAALGSGGSTYYADSVKGRFTISRDNSKNTLYLQMNSLRAEDTAVYYCARYWPMDSWGQGTLVTVS VL: EIVLTQSPGTLSLSPGERATLSCRASQSVSASYLAWYQQKPGQAPRLLMYDASIRATGIPDRFSGSGSGTDFTLTISRLEPEDFAVYYCQQYMSWPLTFGQGTKVEIK :: 3.29e+06
C01_Rd4_6nM_C04 (antibody, V domains shown, IgG) VH: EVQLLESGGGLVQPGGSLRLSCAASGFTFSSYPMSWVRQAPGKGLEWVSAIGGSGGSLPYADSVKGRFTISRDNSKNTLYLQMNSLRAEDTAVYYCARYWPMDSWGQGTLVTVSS VL: EIVLTQSPGTLSLSPGERATLSCCSSQSVSSTYLAWYQQKPGQAPRLLIYDASSRAPGIPDRFSGSGSGTDFTLTISRLEPEDFAVYYCQQYSAFPLTFGQGTKVEIK :: 6.34e+06

Now take the following binder into account.
Data point: A02_Rd4_6nM_C05 (antibody, V domains shown, IgG) VH: EVQLLESGGGLVQPGGSLRLSCAASGFTFSSYAMNWVRQAPGKGLEWVSAIFASGGSTYYADSVKGRFTISRDNSKNTLYLQMNSLRAEDTAVYYCARYWPMTPWGQGTLVTVSS VL: EIVLTQSPGTLSLSPGERATLSCRASQSVSSSYLAWYQQKPGQAPRLLMYDASIRATGIPDRFSGSGSGTDFTLTISRLEPEDFAVYYCQQYQRWPLTFGQGTKVEIK ; kon = 1.36e+06
